Target: hAhR (Homo sapiens)
Construct: Stably integrated DRE-luciferase cell lines were generated by transducing the both cell lines with Cignal XRE luciferase reporter; endogenous in cells; host or cells: HEPG2 DRE-Luc cells (only the XRE luciferase reporter was transduced)
Sequence (P35869 11-848): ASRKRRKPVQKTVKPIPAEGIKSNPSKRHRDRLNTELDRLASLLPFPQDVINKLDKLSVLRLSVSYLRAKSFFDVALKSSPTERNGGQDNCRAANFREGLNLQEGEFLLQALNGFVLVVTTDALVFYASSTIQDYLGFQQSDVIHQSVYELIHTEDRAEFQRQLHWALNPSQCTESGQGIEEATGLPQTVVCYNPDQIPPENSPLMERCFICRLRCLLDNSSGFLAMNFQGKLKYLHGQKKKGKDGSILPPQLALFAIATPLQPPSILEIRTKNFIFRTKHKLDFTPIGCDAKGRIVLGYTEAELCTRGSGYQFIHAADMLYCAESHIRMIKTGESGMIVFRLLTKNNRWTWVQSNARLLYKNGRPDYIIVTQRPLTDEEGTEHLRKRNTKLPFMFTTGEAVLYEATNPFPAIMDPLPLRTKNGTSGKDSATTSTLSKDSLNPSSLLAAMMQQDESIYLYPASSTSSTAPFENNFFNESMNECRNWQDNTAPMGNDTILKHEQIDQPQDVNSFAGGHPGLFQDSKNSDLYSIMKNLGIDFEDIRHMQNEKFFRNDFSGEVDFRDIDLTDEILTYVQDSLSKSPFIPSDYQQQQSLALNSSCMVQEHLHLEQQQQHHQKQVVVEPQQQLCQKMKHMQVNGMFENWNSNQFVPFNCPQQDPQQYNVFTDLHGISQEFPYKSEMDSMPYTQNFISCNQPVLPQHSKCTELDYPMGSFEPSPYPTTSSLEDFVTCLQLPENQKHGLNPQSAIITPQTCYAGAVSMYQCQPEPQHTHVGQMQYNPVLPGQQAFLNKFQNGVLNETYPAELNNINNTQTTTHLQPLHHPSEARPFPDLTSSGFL
Assay: DRE-luciferase transcriptional reporter assay in HEPG2 DRE-Luc cells, TCDD-induced (antagonist mode)
Format: cell-based
Conditions: relative IC50, 3 nM TCDD, 24-hour incubation, firefly luciferase readout
QUANTITY: IC50

Look over these answered cases.
Cc1cc(-c2ncc3nc(C(F)(F)F)ccc3n2)ccc1N1CCOc2cnn(C)c2C1
< 200 nM
Cc1cc(-c2ncc3cc(C(F)(F)F)ccc3n2)ccc1N1CCOc2cnn(CCN3CCC(F)(F)CC3)c2C1=O
1000 to 10000 nM
Cc1cnn2c1C(=O)N(c1ccc(-c3ncc4cc(C(F)(F)F)ccc4n3)cc1F)CC2
< 200 nM

With those in mind, consider the next compound.
Which IC50 value belongs to Cc1cc(-c2ncc3cc(C(F)(F)F)ccc3n2)ccc1N1CCc2cnn(C)c2C1=O ?
< 200 nM
